Where these numbers come from: PubChem BioAssay (NCI)

Quick record: GI50, HS 578T breast.
measuredQuantity: GI50

>>> print(df.to_string())
                                   compound    result
0  C=CCN1C(=O)/C(=c2\sc3n(c2=O)C2C(NN=3)N(CC)C(=O)N2CC)c2ccccc21 (centres undefined)  0.447 µM
1          CC/C(=N\Nc1nc2ccccc2n1C)c1ccccn1  0.923 µM
2           O=C(Nc1cccc(Cl)c1)Nc1cccc(Cl)c1  > 100 µM
3  CSc1ccc2c(c1)c(CCN)c(C)n2Cc1ccc(Cl)c(Cl)c1   2.05 µM

###

Let's look at some compounds and their measured TGI.
# Test system: MOLT-4 leukemia
# assayRemarks: NCI tumour cell line growth inhibition, 48 h
measuredQuantity: TGI (µM)

>>> df
                                   compound  uom  resultoperator  recordednumber
0  CN(C)CC(C(=O)c1ccccc1)c1ccccc1 (stereo not given)   µM               =            31.3
1  Cn1cc(-c2csc(-c3c[nH]c4ncccc34)n2)c2cc(Br)cnc21   µM               >             100
2          CCCCCCCCCc1cc(O)c(O)cc1CCCCCCCCC   µM               >              10
3  Cc1c2cc[n+](COC(=O)c3ccccc3)cc2c(C)c2c1[nH]c1ccccc12   µM               =            1.59
4  CCCCC1Cc2cc(O)ccc2-c2n1c1cc(O)ccc1[n+]2C (stereo not given) (tested in a mixture with another compound)   µM               >             100

###

# Test system: SR leukemia
# assayRemarks: NCI tumour cell line growth inhibition, 48 h
Let's look at some compounds and their measured TGI.
measuredQuantity: TGI

>>> df
                                   compound  assayedsystem     result
0            Nc1ccc2c(c1)C(=O)c1ccc(F)cc1-2    SR leukemia   > 100 µM
1  COc1c(OC(C)=O)cc2c(OC(C)=O)c1CC(C)CC(OC)C(O)C(C)/C=C(\C)C(OC(N)=O)C(OC)/C=C\C=C(/C)C(=O)N2 (centres undefined)    SR leukemia  > 72.6 µM
2  COc1ccc2c(=O)c([Se]c3coc4cc(OC)ccc4c3=O)coc2c1    SR leukemia   > 100 µM
3    O=c1[nH]c(=S)[nH]c2c1sc(=S)n2-c1ccccc1    SR leukemia   > 100 µM

###

# System: LOX IMVI melanoma
# assayRemarks: NCI tumour cell line growth inhibition, 48 h
measuredQuantity: TGI

                                    compound      assayedsystem     result
 0  COc1ccc2c(c1)/C(=C(\C(Cl)=C(\Cl)N1CCCCC1)[N+](=O)[O-])N2  LOX IMVI melanoma   > 100 µM
 1  CSC1=Nc2c(c(C)c(-c3ccccc3)n2COC(CO)CO)C2=NC(=O)C(C)N12 (stereo unspecified)  LOX IMVI melanoma   > 100 µM
 2        CC(=O)CC(=O)CCCC(=O)Nc1ccc(Cl)cc1C  LOX IMVI melanoma   > 100 µM
 3  Nc1nc(-c2ccccc2)c(-c2ccccc2)c(-c2nc(N)nc(-c3ccccc3)c2-c2ccccc2)n1  LOX IMVI melanoma   > 100 µM
 4  COc1ccc(/C=C2\N=C(c3ccccc3)OC2=O)c(OCc2ccccc2)c1  LOX IMVI melanoma   > 100 µM
 5  CC(=O)NNc1nc(C)c(C(=O)NNC(=O)C(=O)Nc2ccc(C)c(C)c2)s1  LOX IMVI melanoma   > 100 µM
 6  OC1CN(OC/C=C/c2ccccc2)CC(O)C1O (stereo unspecified)  LOX IMVI melanoma   > 100 µM
 7  CCC(=O)C1=C(OC(C)=O)C2Cc3c(n(C)c4ccccc34)C(C1)N2C (stereo unspecified)  LOX IMVI melanoma   > 100 µM
 8          C/C(CC(O)(C(F)(F)F)C(F)(F)F)=N\N  LOX IMVI melanoma    > 10 µM
 9  O=C1CCCCC/C=C2/CC[C@H](Sc3ccccc3)[C@@H]12  LOX IMVI melanoma   > 100 µM
10  CCN(CC)CCn1ncc2ccc3c(c(=O)c4cccnc4n3CCN(CC)CC)c21  LOX IMVI melanoma  > 6.79 µM
